test system: mushroom tyrosinase (polyphenol oxidase); assay: Polymer production in enzymatic tyrosinase (polyphenol oxidase) reaction; assay type: biochemical; design: key: +++: Reacted within about 1 hour; ++: reacted within about 3 hours; +: reacted within about 24 hours; +/−: inconclusive results; −: no reaction; conditions: approx. 50 mM potassium phosphate buffer pH 6.5, approx. 5 mM substrate, observed over 24 hour period
quantity.kind: Result (polymer production in tyrosinase reaction)

>  <molecule>
Cl.NCCc1ccccc1 [Beta phenylethylamine HCL]

>  <data.value>
+/−

$$$$

###

test system: mushroom tyrosinase (polyphenol oxidase); assay: Polymer production in enzymatic tyrosinase (polyphenol oxidase) reaction; assay type: biochemical; design: key: +++: Reacted within about 1 hour; ++: reacted within about 3 hours; +: reacted within about 24 hours; +/−: inconclusive results; −: no reaction; details: approx. 50 mM potassium phosphate buffer pH 6.5, approx. 5 mM substrate, observed over 24 hour period
quantity.kind: Result (polymer production in tyrosinase reaction)

>  <molecule>
c1ccc2[nH]ccc2c1 [Indole]

>  <target.system>
mushroom tyrosinase (polyphenol oxidase)

>  <data.value>
−

$$$$
